Where do the numbers come from? From a melting point compilation (Tetko et al.; mined from patent text by program, amines drawn as free bases though some values may be those of a salt).

EXPERIMENTAL ENDPOINT: melting point

Solved entries (count: 6):
Look up melting point: CC(=O)NC[C@H]1CN(c2ccc(N3CCC(Cc4noc(C)n4)CC3)c(F)c2)C(=O)O1
136 to 138 °C

Now give it for CCOC(=O)C(=CNc1ncnc2ccc(NC(=O)C(CC)CC)cc12)C(=O)OCC too.
191 to 194 °C

Now consider COc1cc2cc(-c3ccncc3)oc2cc1OC .
227 to 229 °C

And O=C(O)/C=C(/c1ccccc1)c1ccc2ccccc2c1 ?
170 to 172 °C

Can you check COCCCn1c(CO)c(Br)c2c3c(c(-c4ccccc4Cl)cc21)C(=O)NC3=O next?
178 to 180 °C

Please give the result for COc1ccc(-n2cnnc2C(C)O)cc1 (configuration not stated) too.
170 °C

***
State the recorded melting point for this entry: COc1cc(OCCOc2ccc3ccccc3c2)cc(OC)c1C(=O)C(=O)O
154 °C

---

EXPERIMENTAL ENDPOINT: melting point

Field request: melting point | item: CC(=O)Nc1c(C(O)(C(F)(F)F)C(F)(F)F)ccc2ccccc12
155 to 156 °C

Hi, could you look up melting point for each item in my list?
1. COc1cc(C(=O)N2Cc3cccn3Cc3ccccc32)ccc1N
2. O=c1[nH]c2cc(Cl)ccc2n1C1CCN(Cc2cncc(-c3ccccc3)c2)CC1
3. O=[N+]([O-])c1cccc(Oc2ccc(-c3ccccc3)cc2)c1
4. O=C(O)c1cc(C(F)(F)F)ccc1Cl
5. CC(C)n1c(-c2ccc(F)cc2)c(/C=C/C(=O)O)c2ccccc2c1=O
6. CCCc1cc(C(=O)O)cc(CCC)c1OCCCCCCc1cccc(O)c1O
7. COc1ccccc1C(=O)N1CCN(C(=O)CNC2CCN(Cc3ccccc3)CC2)C(c2ccc(Cl)c(Cl)c2)C1 (racemic)

1: 184 to 185 °C; 2: 229 to 231 °C; 3: 97.6 to 98.8 °C; 4: 93 to 94 °C; 5: 233 to 234 °C; 6: 94 to 96 °C; 7: 71 to 73 °C

// for each molecule below, give its melting point
1. Cc1cccc(C(=O)Nc2ccc(-c3ccc(-c4ccccc4Cl)n3Cc3cccc(N)n3)cc2)c1
2. C[C@H]1CN(c2ccccn2)[C@@H](C)CN1C1=c2ccccc2=NCN1c1ccccc1 (relative stereo)

1. 108 to 118 °C
2. 68 to 70 °C

# per-item lookup of melting point; items listed below
1. CC12CCC(OC(=O)COc3ccccc3)CC1=CCC1C2CCC2(C)C(=NO)CCC12 (stereo not drawn)
2. C[C@@H](O)Cn1cnc2c(N)ncnc21
3. CCCc1c(CSc2nnc(NC(=O)C(=O)OCC)s2)ccc(C(C)=O)c1O
4. Cc1cnc(N2CCN(CC[C@H]3CC[C@H](NC(=O)C4CCOCC4)CC3)CC2)c2c1OCC2
5. CC(C)c1ncc(O)cn1

["118 to 122 °C", "188 to 190 °C", "189 °C", "224 °C", "184 °C"]

Batch of 3 molecules: report melting point for each.
1. CC(Cn1ccnc1)Cn1c(=O)c2ccc(Cl)cc2n(C)c1=O (stereo not drawn)
2. O=C(O)COc1ccccc1OCCC(c1ccccc1)(c1ccccc1)c1ccccc1
3. COC(=O)CCn1c(=O)n2n(c1=O)C(C(=O)OC(C)(C)C)C=CC2 (stereo not drawn)

["206 to 209 °C", "137 to 139 °C", "77 to 78 °C"]

---

What melting point was measured for each of the following?

See these solved cases before continuing.
Reported melting point for CN1CCC(c2c(O)cc(O)c3c(=O)cc(-c4ccccc4Cl)oc23)C1Cn1ccnc1 (stereo not drawn) : what is it?
249 to 250 °C

Item: Cc1[nH]c2ccccc2c1CN1CCC(c2c(Cl)cccc2Cl)CC1
168 to 170 °C

Turning now to a further record.
Look up melting point for this molecule: Cc1nc(-c2ccc(-c3cscn3)cc2)c(-c2ccc(S(N)(=O)=O)c(F)c2)o1
116 to 118 °C

---

EXPERIMENTAL ENDPOINT: melting point

Field: example entries. Status: answers known.
What does the data say about its melting point? Entry: CCN1CCCC(NC(=O)c2ccc(Nc3ccnc4c(C(F)(F)F)cccc34)cc2)C1 (stereo not given)
177 to 178 °C

Same question, Fc1cc(CC2(Cc3ccnc(F)c3)c3cccnc3-c3ncccc32)ccn1 this time
239 to 241 °C

Please give the result for CC(C)Cn1c(CO)c(OCCCC(F)(F)F)c2cc(OCc3ccccc3)ccc2c1=O too.
112 to 113 °C

Please give melting point for each item listed below.
1. Nc1nc2c(s1)CCN(CC=Cc1cccc(Cl)c1)CC2
2. CCS[C@@H]1c2ccn3c(C)c(C)nc3c2N[C@H](c2ccccc2)[C@H]1O

1: 132 to 136 °C; 2: 220 to 223 °C

---

For each record, write down the corresponding melting point.

Fill blank: measured melting point of the compound CCC(Cl)(CC)CC(=O)c1cc(C(C)(C)C)c(O)c(C(C)(C)C)c1 is ____.
72 °C

And what about the compound CC[C@@H](c1ccccc1)N(Cc1ccc(C(=O)NCC(=O)O)cc1)S(=O)(=O)c1ccc(Cl)cc1 ?
136 to 139 °C

Queued: CCCCCCOC(=O)CCCC(C)(C)c1cc(O)c(C(C)(C)CCCC(=O)OCCCCCC)cc1O
77 to 78 °C

Your task in this section: give melting point for each listed record.
1. CC(C)(S)CNCc1ccc(O)cc1
2. CCc1nc2c(N)nc3cc(OCCN(C(N)=O)C(C)C)ccc3c2n1CC1CCOCC1
3. N#Cc1c(Cc2ccccc2)nn(C2CCCC2)c1N
4. OC(CSc1ncnc2[nH]ncc12)CN1CCN(C(c2ccc(Cl)cc2)c2ccc(Cl)cc2)CC1 (centres undefined)

1: 85 to 87 °C; 2: 223 to 225 °C; 3: 180 to 182 °C; 4: 115 to 118 °C

---

Give melting point for every item shown.

# annotated cases, reported melting point shown
Need melting point of COc1cc2c3c(c1OC)CN(C)CC3Cc1cc3c(cc1-2)OCO3 (stereo not given) , thanks.
169 to 172 °C

Same question for Cc1cc(-n2nc(C(F)(F)F)cc2-c2ccc(-c3ccco3)cc2)ccc1S(C)(=O)=O please.
135 to 139 °C

And for Cc1nn(C)c(N)c1C(=O)Nc1ccccc1C(C)C ?
144 to 146 °C

Proceed to CNc1cc(NC)c(C(=O)NCCC(=O)OC)cc1NC(=O)c1ccc(C#N)cc1
208 to 210 °C

Item: Cc1cc2cnccc2s1
47 to 48 °C

Here is the next compound: COc1ccc2cc([C@@H]3CCN(C[C@H](O)COc4cccc5[nH]ccc45)[C@@H](C)C3)sc2c1
179 to 182 °C

Report melting point for every entry below.
1. Cc1ccc2oc(=O)c(-c3ccccc3)c(OCCN3CCOCC3)c2c1
2. NC(=O)ON(Cc1ccccc1)Cc1ccccc1
3. COc1ccc(C(=O)N2Cc3ccccc3CC2C(=O)O)cc1 (stereo not given)

1. 96 °C
2. 127 to 129 °C
3. 178 to 180 °C

Please state melting point for every compound in the list that follows.
1. CC1=CC(C)(C)N2C(=O)C(=O)c3cccc1c32
2. CC1=C(C(=O)N(C)C)C(c2ccccc2)C(C(N)=O)=C(N)N1 (stereo not given)
3. CCC1=C(c2ccc(F)c(F)c2)C(=NO)CC1
4. O=C(O)c1snc(-c2ccccc2)c1O
5. CC(=O)Nc1cc(C(O)CN(Cc2ccccc2)C(C)Cc2ccc(O)cc2)ccc1OCc1ccccc1 (stereo not given)
6. N#Cc1ccc(-c2ncc(C(F)(F)F)cc2Cl)cc1OCC(=O)C1CC1
7. COCCNC(=O)CN1CCN(Cc2ccc3c(c2)NC(=O)C(C)O3)CC1 (stereo not given)

["170 to 176 °C", "236 °C", "136 to 137 °C", "161 to 163 °C", "141 to 143 °C", "115 to 116 °C", "111 to 142 °C"]

---

Please go through the items and note down their melting point.

What does the data say about its melting point? Entry: COC(=O)C1C(Sc2ccccc2)CC2CCC1N2C (stereo not given)
55 to 57 °C

Now the same for CCOC(=O)COc1cccc(CN2C(=O)C3(COc4cc5c(cc43)CCO5)c3ccccc32)c1 (stereo not given)
45 to 46 °C

Next compound up: C=CC(=O)Oc1c(Cc2cc(C)cc(C(C)(C)C)c2O)cc(C)cc1C(C)(C)C
132 to 134 °C

Also need CCCC[C@H](NC(=O)[C@H](CC(C)C)NC(=O)c1cccc(C)c1)C(=O)CSCc1ccco1 , thanks.
123 to 126 °C

# evaluate next
Fill in the blank: the reported melting point of CO/N=C(\C(=O)N[C@@H]1C(=O)N[C@@H]1COC(=O)/C(=N\OC)c1csc(NC(=O)CCl)n1)c1csc(NC(=O)CCl)n1 (relative stereo) is ____.
157 to 159 °C
